test: in vitro; settings: chlorocebus sabaeus, Yellow fever CC50
CC50 at 168 h listing for selected compounds.
Entry rule: numbers only, all in µM.

O=C(NCc1ccccc1-c1ccsc1)c1nc[nH]c1C(=O)Nc1ccc(F)cc1 [15d]
34.5

Now for the compound whose CC50 at 168 h we want.
# input Fill blank: measured CC50 at 168 h of the compound Cc1ccc(NC(=O)c2nccnc2C(=O)Nc2ccc(C)cc2-c2cccnc2)cc1 [20i] is ____.
# output 75.5

* * *

system: dengue virus (DENV); assay: microbe, parasite or virus in culture; format: cell-based; details: Dengue virus, Vero B, 168 h, read-out: Dengue EC50
MEASUREMENT_TYPE: EC50 (µM)
Provide the reading as a plain figure in µM.

These recorded examples may help you get a feel for the data.
Cc1ccc(NC(=O)c2nccnc2C(=O)Nc2ccc(C)cc2-c2ccncc2)cc1 [20n]
11.9
Cc1ccc(NC(=O)c2nccnc2C(=O)NCc2ccc(-c3ccncc3)cc2)cc1 [20h]
16.6
Cc1ccc(NC(=O)c2nccnc2C(=O)Nc2ccccc2-c2ccncc2)cc1 [20k]
4.71
Cc1ccc(NC(=O)c2nccnc2C(=O)NCc2ccc(-c3cccnc3)cc2)cc1 [20j]
6.75
Cc1ccc(NC(=O)c2nccnc2C(=O)Nc2ccc(C)cc2-c2cccnc2)cc1 [20i]
10.6
O=C(NCc1ccccc1-c1ccncc1)c1nc[nH]c1C(=O)Nc1ccc(F)cc1 [15c]
1.92

# input Quick one: EC50 for O=C(Nc1ccc(F)cc1)c1nccnc1C(=O)Nc1ccccc1-c1ccncc1 [20d] ?
# output 11.7

# input Try this molecule too: Cc1ccc(NC(=O)c2nc[nH]c2C(=O)NCCc2ccc(F)cc2)c(-c2ccco2)c1 [15n]
# output 3.77

* * *

experiment: in vitro; settings: chlorocebus sabaeus, Yellow fever CC50
# key: entry, value: CC50

Cc1ccc(NC(=O)c2nccnc2C(=O)Nc2ccc(F)cc2)c(-c2cccnc2)c1 [20b]
> 118 µM
Cc1ccc(NC(=O)c2nc[nH]c2C(=O)Nc2ccc(F)cc2)c(-c2ccsc2)c1 [15h]
> 119 µM
Cc1ccc(NC(=O)c2nccnc2C(=O)Nc2ccc(C)cc2-c2ccncc2)cc1 [20n]
> 118 µM
O=C(NCc1ccc(-c2ccncc2)cc1)c1nc[nH]c1C(=O)Nc1ccc(F)cc1 [15g]
> 120 µM
Cc1cc(-c2ccccc2NC(=O)c2nc[nH]c2C(=O)Nc2ccc(F)cc2)[nH]n1 [15b]
> 121 µM

# input Returns the measured CC50 for the input compound. Input: O=C(NCc1ccc(-c2ccsc2)cc1)c1nc[nH]c1C(=O)Nc1ccc(F)cc1 [15f]
# output > 119 µM

# input What do we get for Cc1ccc(NC(=O)c2nccnc2C(=O)Nc2ccccc2-c2ccncc2)cc1 [20k] ?
# output > 125 µM

# input Please give the result for O=C(Nc1ccc(F)cc1)c1nccnc1C(=O)Nc1ccccc1-c1cccnc1 [20e] too.
# output > 119 µM

# input Next record, please: Cc1ccc(NC(=O)c2nc[nH]c2C(=O)Nc2ccc(F)cc2)c(-c2cc(C)n[nH]2)c1 [15a]
# output > 120 µM

# input Same question for Cc1cnc(NC(=O)c2[nH]cnc2C(=O)Nc2ccccc2)c(-c2ccc(C)s2)c1 [15o] please.
# output > 119 µM

# input Try this compound next: O=C(NCc1ccc(-c2cccnc2)cc1)c1nccnc1C(=O)Nc1ccc(F)cc1 [20c]
# output > 116 µM

# input Continue with Cc1ccc(NC(=O)c2nccnc2C(=O)NCc2ccc(-c3cccnc3)cc2)cc1 [20j]
# output > 124 µM

# input Try this compound too: O=C(NCc1ccccc1-c1ccncc1)c1nccnc1C(=O)Nc1ccc(F)cc1 [20f]
# output > 127 µM

# input Okay, and Cc1ccc(NC(=O)c2nccnc2C(=O)Nc2ccccc2-c2cccnc2)cc1 [20l] ?
# output > 122 µM

# input Thanks! And O=C(NCc1ccc(-c2ccncc2)cc1)c1nccnc1C(=O)Nc1ccc(F)cc1 [20a] ?
# output > 120 µM

# input Again, but for O=C(Nc1ccc(F)cc1)c1nccnc1C(=O)Nc1ccccc1-c1ccncc1 [20d]
# output > 123 µM

# input Continue with Cc1ccc(NC(=O)c2nccnc2C(=O)NCc2ccc(-c3ccncc3)cc2)cc1 [20h]
# output > 110 µM

* * *

# pEC50 annotations
system: yellow fever virus (YFV); test: microbe, parasite or virus in culture; assay type: cell-based; settings: Yellow fever virus, Vero B, 168 h, read-out: Yellow fever EC50
For clarity, pEC50 is expressed as the negative log10 of concentration in mol/L.

# input Quick one: pEC50 for Cc1ccc(NC(=O)c2nccnc2C(=O)NCc2ccc(-c3ccncc3)cc2)cc1 [20h] ?
# output 4.43

# input Do the same for Cc1ccc(NC(=O)c2nccnc2C(=O)Nc2ccc(F)cc2)c(-c2cccnc2)c1 [20b] please
# output 4.88

# input Next compound: O=C(Nc1ccc(F)cc1)c1nccnc1C(=O)Nc1ccccc1-c1ccncc1 [20d]
# output 5.09

# input Repeat for the following compound: O=C(NCc1ccc(-c2cccnc2)cc1)c1nc[nH]c1C(=O)Nc1ccc(F)cc1 [15e]
# output 4.93

# input // query: Cc1ccc(NC(=O)c2nccnc2C(=O)Nc2ccc(C)cc2-c2cccnc2)cc1 [20i]
# output 4.73

# input Now the compound O=C(NCc1ccc(-c2cccnc2)cc1)c1nccnc1C(=O)Nc1ccc(F)cc1 [20c]
# output 5.05

# input One more compound: Cc1ccc(NC(=O)c2nccnc2C(=O)Nc2ccc(F)cc2)c(-c2ccncc2)c1 [20g]
# output 4.31

* * *

EC50 listing for selected compounds.
test system: yellow fever virus (YFV); experiment: microbe, parasite or virus in culture; format: cell-based; details: Yellow fever virus, Vero B, 168 h, read-out: Yellow fever EC50
Please state the figure in µM; there is no need to write the unit.

Solved cases below.
Cc1ccc(NC(=O)c2nc[nH]c2C(=O)Nc2ccc(F)cc2)c(-c2cc(C)n[nH]2)c1 [15a]
3.37
Cc1ccc(NC(=O)c2nccnc2C(=O)Nc2ccc(C)cc2-c2ccncc2)cc1 [20n]
30.9
Cc1ccc(NC(=O)c2nccnc2C(=O)NCc2ccc(-c3cccnc3)cc2)cc1 [20j]
73.1

We next turn to a different compound, shown below.
# input Fill in: EC50 of O=C(NCc1ccccc1-c1ccncc1)c1nccnc1C(=O)Nc1ccc(F)cc1 [20f] is ___
# output 21.3

* * *

test system: dengue virus (DENV); experiment: microbe, parasite or virus in culture; assay type: cell-based; settings: Dengue virus, Vero B, 168 h, read-out: Dengue EC50
Recorded EC50, one value per entry.
Respond numerically; units are µM and should not be typed.

Some molecules with recorded EC50:
O=C(NCc1ccc(-c2cccnc2)cc1)c1nccnc1C(=O)Nc1ccc(F)cc1 [20c]
2.99
Cc1ccc(NC(=O)c2nccnc2C(=O)Nc2ccccc2-c2cccnc2)cc1 [20l]
14.6
O=C(NCc1ccccc1-c1ccncc1)c1nccnc1C(=O)Nc1ccc(F)cc1 [20f]
40.7

# input Quick one: EC50 of Cc1ccc(NC(=O)c2nccnc2C(=O)Nc2ccc(F)cc2)c(-c2cccnc2)c1 [20b] ?
# output 0.93

# input Queued: O=C(NCc1ccc(-c2ccsc2)cc1)c1nc[nH]c1C(=O)Nc1ccc(F)cc1 [15f]
# output 33.7

# input Query O=C(Nc1ccc(F)cc1)c1nccnc1C(=O)Nc1ccccc1-c1cccnc1 [20e] next
# output 23.2

# input Item: O=C(NCc1ccc(-c2ccncc2)cc1)c1nccnc1C(=O)Nc1ccc(F)cc1 [20a]
# output 0.93

* * *

Parameter CC50: see the listing below.
assay: in vitro; details: chlorocebus sabaeus, Yellow fever CC50

Here are 2 compounds together with their reported answers.
O=C(NCc1ccccc1-c1ccncc1)c1nc[nH]c1C(=O)Nc1ccc(F)cc1 [15c]
> 120 µM
Cc1ccc(NC(=O)c2nccnc2C(=O)Nc2ccc(F)cc2)c(-c2ccncc2)c1 [20g]
> 125 µM

# input Could you share which CC50 value was measured for Cc1ccc(NC(=O)c2[nH]cnc2C(=O)Nc2ccc(C)cc2-c2ccsc2)cc1 [15k] ?
# output > 120 µM

# input Would you kindly repeat that for O=C(NCc1ccc(-c2cccnc2)cc1)c1nc[nH]c1C(=O)Nc1ccc(F)cc1 [15e] ?
# output > 118 µM

# input Same lookup for Cc1ccc(NC(=O)c2nc[nH]c2C(=O)Nc2ccccc2)c(-c2ccsc2)c1 [15j] , please.
# output > 120 µM

* * *

assay: in vitro; conditions: chlorocebus sabaeus, Dengue CC50
CC50 at 168 h values by entry

Example cases with answers are listed next.
Cc1ccc(NC(=O)c2nccnc2C(=O)Nc2ccc(C)cc2-c2cccnc2)cc1 [20i]
47.5 µM
Cc1cnc(NC(=O)c2[nH]cnc2C(=O)Nc2ccccc2)c(-c2ccc(C)s2)c1 [15o]
26.4 µM
O=C(NCc1ccccc1-c1ccncc1)c1nc[nH]c1C(=O)Nc1ccc(F)cc1 [15c]
50.1 µM

# input Entry Cc1ccc(NC(=O)c2nccnc2C(=O)NCc2ccc(-c3ccncc3)cc2)cc1 [20h] : reported CC50 at 168 h = ?
# output 74.7 µM

# input Would you kindly repeat that for O=C(NCc1ccc(-c2ccsc2)cc1)c1nc[nH]c1C(=O)Nc1ccc(F)cc1 [15f] ?
# output 20.2 µM

# input Try this compound next: Cc1cc(-c2ccccc2NC(=O)c2nc[nH]c2C(=O)Nc2ccc(F)cc2)[nH]n1 [15b]
# output 21.7 µM

# input Note, next up: O=C(NCc1ccccc1-c1ccsc1)c1nc[nH]c1C(=O)Nc1ccc(F)cc1 [15d]
# output 17.3 µM
